B1: CPEB3 Ribozyme (parent)
chain: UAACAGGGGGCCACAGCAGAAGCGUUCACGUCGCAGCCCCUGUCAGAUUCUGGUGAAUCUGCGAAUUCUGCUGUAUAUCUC

# Variants of: B1
# protocol_details: self-cleavage, relative activity (ratio to wild type); higher = more cleavage; in vitro, sequencing
Classification field. Basis: self-cleavage. Definitions: L: < 0.2; M: ≥ 0.2 and < 0.5; H: ≥ 0.5

UAACAGGGGGCCACAGCGGAAGCGUUCACGUCGCAGCCCCUGUCAGAUUCUGGUGAAUCUGCGAAUUCAGCUGUAUAUCUC [A18G U69A] = M
UAACAGGGUGCCACGGCAGAAGCGUUCACGUCGCAGCCCCUGUCAGAUUCUGGUGAAUCUGCGAAUUCUGCUGUAUAUCUC [G9U A15G] = L
UAACAGGGGGCCACAGCAGAAGCGUUCACGCCGCAGCCCCUGUCAGAUUCUGGUGAAUCUGCGAAUUCUGUUGUAUAUCUC [U31C C71U] = M
UAACAGGGGGCCACAGCCGAAGCGUUCACGUCGCAGCCCCUGUCAGAUUCUGGUGAAUCUGCGAAUUCUGCUGUAUAUCCC [A18C U80C] = H
CAACAGGGGGCCACAGCAGAAGCGUUCACGUCGCAGCCCCUGUCAGAUUCUGGUGAAUCUGCGAAUGCUGCUGUAUAUCUC [U1C U67G] = M
UAACAGGGGUCCACAGCAGAAGCGUUCACGUCGCAGCCCCUGUCAGAUUCUGGUGAAUCUGCGAAUUCUGCCGUAUAUCUC [G10U U72C] = M
UAACAGGGGGCCACAGCAGAAGCGUUCACGUCGCAGCCCCUGUCAGAUUCUGGUGAGUCUGCGAAUUCUGCUGUAUACCUC [A57G U78C] = H
UAACAGGGGGCCACGGCAGAAGCGUUCACGUUGCAGCCCCUGUCAGAUUCUGGUGAAUCUGCGAAUUCUGCUGUAUAUCUC [A15G C32U] = L
UAACAAGGGGCCACAGCAGAAGCGUUCACGUCGCAGCCCCUGUCAGAUUCUGGUGAAUCUGCGAAUUCUGCUGUAUCUCUC [G6A A77C] = M
UAACAGGGGGCCACAGCAGAAGCGUUCACGUCGCAGCCCCUGUCAGAUUCUGGUGAAUUUGCGAAUUCUGCUGUACAUCUC [C59U U76C] = H

Please classify: UAACAGGGGGCCACAGCAGAAGCGUCCACGUCGCAGCCCCUGUCAGAUUCUGGUGAACCUGCGAAUUCUGCUGUAUAUCUC [U26C U58C]
M

Each variant maps to one class by self-cleavage. Which class for UAACAGGGGGCCACAGCAGAAGCGUUCACGUCGCAGCCCCUGUCAGAUUCUGGUGAAUCUGCGCAUACUGCUGUAUAUCUC [A64C U67A] ?
L

Quick check: band for UAACAGGGGGCCACAGCAGAAGCGUUCACCUCGCAGCCCCUGUCAGAUUCUGGUGGAUCUGCGAAUUCUGCUGUAUAUCUC [G30C A56G]
L

Lab log: UAACAGGGGGCCACAGCAGAAGCGUCCACUUCGCAGCCCCUGUCAGAUUCUGGUGAAUCUGCGAAUUCUGCUGUAUAUCUC [U26C G30U] — assign self-cleavage category
L

Band for UAACAGGGGGCCACAGCAGAAGCGUUCACGGCGCAGCCCCUGUCAGAUUCUGGUGAAUCUGCGAAUUCUGCUGUAUGUCUC [U31G A77G] ?
H

Into which category would you place UAACACGGGGCCACAGCAGAAGCGUUCACGUCGCAGCCCCUGUCAGAUUCUGGUGAAUCUGCGAAUUCUGCUGUAUAUCUC [G6C] ?
M

Kindly state the category for this variant: UAACAGAGGGCCACAGCAGAAGCGUUCACGUCGCAGCCCCUGUCAGAUUCUGGUGAAUCUGCGAAUUCAGCUGUAUAUCUC [G7A U69A]
M

Into which category would you place UAACACGGGGCCACAGCAGAAGCGUUCACGUCGCAGCCCCUGUCAGAUUCUGGUGAAUCUGCGAAUUCUGCUGCAUAUCUC [G6C U74C] ?
H

Lab note: which band did UAACAGGGGGCCACAGCAAAAGCGUUCACGUCGCAGCCUCUGUCAGAUUCUGGUGAAUCUGCGAAUUCUGCUGUAUAUCUC [G19A C39U] land in?
M
